Entry source: ChEMBL document CHEMBL1157918

A collection of compounds and their measured CLint scaled
# measurement description: in vitro
# cond: human, liver microsomes
# Description: Intrinsic clearance in human liver microsomes

compound | CLint scaled [mL/min/kg]
CN1CCC[C@@H]1C(=O)NC1C2CC3CC(C2)CC1C3 (some centres not stated) | 22.2
N#Cc1ccc(CN2CCC[C@@H]2C(=O)NC2C3CC4CC(C3)CC2C4)cc1 (some centres not stated) | 73.2
O=C(NC1C2CC3CC(C2)CC1C3)[C@H]1CCCN1c1ccccn1 (some centres not stated) | 79.2
O=C(NC1C2CC3CC(C2)CC1C3)[C@H]1CCCN1CC1CCOCC1 (some centres not stated) | 20.3
O=C(NC1C2CC3CC(C2)CC1C3)[C@H]1CCCN1CC1CCCCC1 (some centres not stated) | 62.8
O=C(NC1C2CC3CC(C2)CC1C3)[C@H]1CCCN1CC1CCCC1 (some centres not stated) | 75.3
CCN1CCC[C@@H]1C(=O)NC1C2CC3CC(C2)CC1C3 (some centres not stated) | 43.9
O=C(NC1C2CC3CC(C2)CC1C3)[C@H]1CCCN1CC1(O)CCCCC1 (some centres not stated) | 64.6
O=C(NC1C2CC3CC(C2)CC1C3)[C@H]1CCCN1CC1CCC1 (some centres not stated) | 85.8
O=C(NC1C2CC3CC(C2)CC1C3)[C@H]1CCCN1CC1(O)CCCC1 (some centres not stated) | 86.2
CC(C)CN1CCC[C@@H]1C(=O)NC1C2CC3CC(C2)CC1C3 (some centres not stated) | 79.3
CCCN1CCC[C@@H]1C(=O)NC1C2CC3CC(C2)CC1C3 (some centres not stated) | 93.3
